tested on: HCV replicon; test: microbe, parasite or virus in culture; format: cell-based; conditions: Replicon IC50 values are determined by firefly luciferase signal; bicistronic replicon, 2 days; read-out: Replicon IC5Os
Endpoint: IC50

Compound	Result
COc1ccc(-n2cc(C(C)=O)c3cc(OC)ccc32)cc1	> 2000 nM
CCn1c(C#Cc2ccccc2F)c(C#N)c2ccc(OC)cc21	500 to 2000 nM
CCn1c(-c2ccc(NS(=O)(=O)CCl)cc2)c(C#N)c2ccc(OC)cc21	> 2000 nM
CCn1c(-c2ccc(NC(=O)OCCF)cc2)c(C#N)c2ccc(OC)cc21	> 2000 nM
CCn1c(C#Cc2ccc(NC(=O)[C@@H]3CCCN3)cc2)c(C#N)c2ccc(OC)cc21	> 2000 nM
CC#CCOC(=O)Nc1cccc(-c2c(C#N)c3ccc(OC(C)C)cc3n2CC)c1	> 2000 nM
CCCS(=O)(=O)Nc1ccc(-c2c(C#N)c3ccc(OC(F)F)cc3n2CC2CC2)cc1	500 to 2000 nM
C#CCOC(=O)Nc1cccc(-c2c(C#N)c3ccc(OC(C)C)cc3n2CC)c1	> 2000 nM
CCn1c(C#Cc2ccc(NC(C)=O)cc2)c(C#N)c2cc(OC)ccc21	500 to 2000 nM
CCOC(=O)Nc1cccc(-c2c(C#N)c3cc(N4CCOCC4)ccc3n2CC)c1	> 2000 nM
COc1ccc2c(C#N)c(-c3ccc(NS(C)(=O)=O)cc3)n(C3CCC3)c2c1	< 500 nM
CCn1c(-c2cccc(NC(=O)OCCl)c2)c(C#N)c2ccc(OC(C)C)cc21	> 2000 nM
CC(C)n1cc(C#N)c2cc3c(cc21)OCO3	> 2000 nM
CCn1c(-c2ccc(NS(=O)(=O)CC)cc2)c(C#N)c2cc(N3CCOCC3)ccc21	500 to 2000 nM
CCn1cc(C#N)c2ccc(OCc3ccccc3)cc21	500 to 2000 nM
CCn1c(C#Cc2cccc(OC)c2)c(C#N)c2ccc(C(F)(F)F)cc21	500 to 2000 nM
CCn1c(-c2ccc(NS(=O)(=O)c3cccc4cccnc34)cc2)c(C#N)c2ccc(OC)cc21	> 2000 nM
CCOC(=O)c1ccc(NC(=O)Nc2cccc(-c3c(C#N)c4ccc(OC)cc4n3CC)c2)cc1	500 to 2000 nM
Cc1ccc2c(C#N)c(C)n(-c3ccc4c(c3)OCO4)c2c1	500 to 2000 nM
CCn1c(C#Cc2ccc(OC)cc2C)c(C#N)c2ccc(OC)cc21	500 to 2000 nM
CCS(=O)(=O)Nc1ccc(-c2cc3ccc(OC(F)F)cc3n2C)cc1	500 to 2000 nM
CCn1c(C#Cc2ccccn2)c(C#N)c2ccc(OC)cc21	500 to 2000 nM
CCn1c(-c2ccc(OC)cc2)c(C#N)c2ccc(OC)cc21	> 2000 nM
C=CCOC(=O)Nc1ccc(-c2c(C#N)c3ccc(OC)cc3n2CC)cc1	> 2000 nM
CCC(C)OC(=O)Nc1ccc(-c2c(C#N)c3ccc(OC)cc3n2CC)cc1 (centres unmarked)	> 2000 nM
CCn1cc(C(=O)C(C)C)c2ccc(OC)cc21	> 2000 nM
CCOc1ccc(-c2c(C#N)c3cc(OC)ccc3n2CC)cc1	> 2000 nM
CCn1c(C#Cc2ccc(N3CCCCC3)cc2)c(C#N)c2ccc(OC)cc21	> 2000 nM
CCn1c(-c2ccc(NC(C)=O)cc2)c(C#N)c2cc(OC)ccc21	> 2000 nM
COCCOC(=O)Nc1ccc(-c2c(C#N)c3ccc(OC(F)F)cc3n2CC2CC2)cc1	> 2000 nM
CCn1c(-c2cccc(NC(=O)OCCCl)c2)c(C#N)c2ccc(OC(C)C)cc21	> 2000 nM
CCn1c(-c2cccc(NC(=O)c3ccco3)c2)c(C#N)c2ccc(OC)cc21	> 2000 nM
CCn1c(-c2ccc(NS(C)(=O)=O)cc2)c(C#N)c2ccc(OCCn3cncn3)cc21	> 2000 nM
CCn1c(-c2cccc(N3CCNS3(=O)=O)c2)c(C#N)c2ccc(OC)cc21	> 2000 nM
CCOc1ccc2cc(-c3ccc(NS(=O)(=O)CC)cc3)n(CC(C)C)c2c1	> 2000 nM
